Biological target: Cytochrome P450 1A2 (Homo sapiens)
Assay: Cytochrome panel assay with activity outcomes
Details: recombinant CYP, pro-luciferin dealkylation, luminescence, p450-cyp1a2; series mostly up to 57.1 µM
Among all 16,000 compounds or so, about 5,700 (36%) were called active. Another 24% or so got no clear call; they are omitted. Some of the results follow.
property: AC50

Example cases with answers are listed next.
INSERT INTO assay_data (compound, property, readoutvalue) VALUES
  ('CNc1oc(C)nc1S(=O)(=O)c1ccc(C)cc1', 'AC50', 'inactive'),
  ('Cc1cc(C)c(C#N)c(SCC(=O)c2ccc(Cl)cc2Cl)n1', 'AC50', '2240 nM (active)'),
  ('c1ccc(-c2nc3ccccn3c2NCc2ccc3c(c2)OCO3)cc1', 'AC50', '1780 nM (active)'),
  ('CCC(=O)N1CCN(C(=O)c2ccccc2)CC1', 'AC50', 'inactive'),
  ('COc1ccc(CNc2cc(-c3ccoc3)ncn2)c(OC)c1', 'AC50', '15800 nM (active)'),
  ('c1ccc(-c2noc(CSc3nnnn3C3CCCCC3)n2)cc1', 'AC50', '2240 nM (active)'),
  ('CSc1nc(-c2ccc(C)cc2)[nH]c1S(=O)(=O)c1ccccc1', 'AC50', '14100 nM (active)'),
  ('Cc1ccc(S(=O)(=O)c2cc(C#N)c(=O)[nH]c2N)cc1', 'AC50', 'inactive');

Ask: Name the recorded AC50 of the item CC1(C)CC(NCc2ccc3c(c2)OCO3)CCO1 (configuration not stated) in your answer.
Reply: inactive

Ask: Write down AC50 measured for item `Cc1c(NC(=O)C2CCN(S(=O)(=O)c3ccc(Cl)cc3)CC2)c(=O)n(-c2ccccc2)n1C`
Reply: inactive

Ask: # return recorded AC50 for entry `Cc1cc(C)c(C#N)c(SCc2cc3c(cc2Cl)OCO3)n1`
Reply: 2240 nM (active)

Ask: State, in one line, measured AC50 of `O=C(c1ccccc1)N1CCSC1=S`
Reply: 14100 nM (active)

* * *

Target: Cytochrome P450 1A2 (Homo sapiens)
Assay: Cytochrome panel assay with activity outcomes
Settings: recombinant CYP, pro-luciferin dealkylation, luminescence, p450-cyp1a2; series mostly up to 57.1 µM
Protocol: The P450 gene superfamily is involved in the metabolism and clearance of xenobiotics. This assay used various human CYP P450 isozymes to measure the dealkylation of various pro-luciferin substrates to luciferin. The luciferin is then measured by luminescence after the addition of a luciferase detection reagent. […] Inhibitors and some substrates limit the production of luciferin, and decrease measured luminescence. […] 8, Detection, 1 sec, ViewLux luminescent read […]
Screen size: about 16,000 compounds; about 5,700 (36%) were called active. Another 24% or so got no clear call; they are omitted. The list shows a part of the results.
property: AC50

INSERT INTO measurements (molecule, readoutvalue) VALUES
  ('COc1cc2c(c(O)c1OC)C(=O)C(OC)CCC2 (stereo unspecified)', '12.6 µM (active)'),
  ('COc1ccc(NC(=O)N2CCCC3(CCN(C(=O)c4cccc(F)c4)CC3)C2)cc1', 'inactive'),
  ('O=C(NCCc1ccccc1)C(=O)NN=C1CCCC1', '12.6 µM (active)'),
  ('c1ccc(C[C@@H](Nc2cccnc2)c2ccccc2)cc1', '0.2 µM (active)'),
  ('COC(=O)N1CCC2(CC1)CN(C(=O)Nc1cccc(F)c1)C2', 'inactive');

Ask: Tell me AC50 of `Clc1ccc2c(c1)C(c1cccs1)=NNC(c1cccnc1)=N2` when tested on Cytochrome P450 1A2 (Homo sapiens).
Reply: 3.16 µM (active)

Ask: Retrieve AC50 on Cytochrome P450 1A2 (Homo sapiens); query `COc1ccc(C(=O)N2CCC3(CCCN(C(=O)Nc4cccc(F)c4)C3)CC2)cc1`
Reply: 20 µM (active)

Ask: Specify AC50 for `O=C1CC(=Nc2ccccc2)NN1c1ccccc1` , system Cytochrome P450 1A2 (Homo sapiens).
Reply: 6.31 µM (active)

Ask: Param request: AC50 | system Cytochrome P450 1A2 (Homo sapiens) | item CCOC(=O)C1C(=O)C=C(c2ccc(C)cc2)CC1c1ccco1 (stereo unspecified)
Reply: 4.47 µM (active)

Ask: Lab note: Cytochrome P450 1A2 (Homo sapiens) assay, enter AC50 for Cc1ccc(C(CC(N)=O)c2ccco2)cc1 (stereo unspecified) here
Reply: inactive

Ask: Write AC50 of `O=C(Nc1cccc(F)c1)N1CCCC2(CCN(C(=O)c3cnccn3)CC2)C1` ; system used: Cytochrome P450 1A2 (Homo sapiens)
Reply: inactive
